experiment: Plasma pharmacokinetics of GSK3532795, part C; type: in vivo, human; conditions: human, plasma, oral, 40 mg
measured property: Cmax

IN: // Input: C=C(C)[C@@H]1CC[C@]2(NCCN3CCS(=O)(=O)CC3)CC[C@]3(C)[C@H](CC[C@@H]4[C@@]5(C)CC=C(c6ccc(C(=O)O)cc6)C(C)(C)[C@@H]5CC[C@]43C)[C@@H]12 . Output its Cmax only.
OUT: 1560 ng/mL

----------
assay: Plasma pharmacokinetics of GSK3532795, part A; format: in vivo; conditions: human, oral, 10 mg
measured property: concentration at 24 h (ng/mL)
// note: answer is a bare numeric in ng/mL

IN: // Input: C=C(C)[C@@H]1CC[C@]2(NCCN3CCS(=O)(=O)CC3)CC[C@]3(C)[C@H](CC[C@@H]4[C@@]5(C)CC=C(c6ccc(C(=O)O)cc6)C(C)(C)[C@@H]5CC[C@]43C)[C@@H]12 . Output its concentration at 24 h only.
OUT: 139

----------
experiment: Plasma pharmacokinetics of GSK3532795, part B; type: in vivo, human; settings: human, plasma, oral, Cmax (%CV), Part B, fed, 40 mg + ATV 400 mg QD
measured property: Cmax (ng/mL)
// note: answer is a bare numeric in ng/mL

IN: // Input: C=C(C)[C@@H]1CC[C@]2(NCCN3CCS(=O)(=O)CC3)CC[C@]3(C)[C@H](CC[C@@H]4[C@@]5(C)CC=C(c6ccc(C(=O)O)cc6)C(C)(C)[C@@H]5CC[C@]43C)[C@@H]12 . Output its Cmax only.
OUT: 1670

----------
assay: Plasma pharmacokinetics of GSK3532795, part A; type: in vivo; conditions: human, oral, 120 mg
measured property: AUC
Give the number first and the unit second.

IN: // Input: C=C(C)[C@@H]1CC[C@]2(NCCN3CCS(=O)(=O)CC3)CC[C@]3(C)[C@H](CC[C@@H]4[C@@]5(C)CC=C(c6ccc(C(=O)O)cc6)C(C)(C)[C@@H]5CC[C@]43C)[C@@H]12 [GSK3532795] . Output its AUC only.
OUT: 44200 ng·h/mL

----------
test: Plasma pharmacokinetics of GSK3532795, part B; assay type: in vivo, human; conditions: human, plasma, oral, Tmax, median (min–max), Part B, fed, 40 mg + ATV 400 mg QD
measured property: Tmax (h)
// note: answer is a bare numeric in h

IN: // Input: C=C(C)[C@@H]1CC[C@]2(NCCN3CCS(=O)(=O)CC3)CC[C@]3(C)[C@H](CC[C@@H]4[C@@]5(C)CC=C(c6ccc(C(=O)O)cc6)C(C)(C)[C@@H]5CC[C@]43C)[C@@H]12 . Output its Tmax only.
OUT: 4.5

----------
experiment: Plasma pharmacokinetics of GSK3532795, part C; format: in vivo, human; conditions: human, plasma, oral, 120 mg
measured property: Tmax (h)
// note: answer is a bare numeric in h

IN: // Input: C=C(C)[C@@H]1CC[C@]2(NCCN3CCS(=O)(=O)CC3)CC[C@]3(C)[C@H](CC[C@@H]4[C@@]5(C)CC=C(c6ccc(C(=O)O)cc6)C(C)(C)[C@@H]5CC[C@]43C)[C@@H]12 [GSK3532795] . Output its Tmax only.
OUT: 3

----------
test: Plasma pharmacokinetics of GSK3532795, part C; format: in vivo, human; details: human, plasma, oral, 40 mg
measured property: Tmax
Give the number first and the unit second.

IN: // Input: C=C(C)[C@@H]1CC[C@]2(NCCN3CCS(=O)(=O)CC3)CC[C@]3(C)[C@H](CC[C@@H]4[C@@]5(C)CC=C(c6ccc(C(=O)O)cc6)C(C)(C)[C@@H]5CC[C@]43C)[C@@H]12 . Output its Tmax only.
OUT: 3 h
